Attribution: PubChem BioAssay (NCI)

Attribute: growth
# Test system: SN12C renal
# test_name: NCI-60 one-dose screen, 48 h (100 = growth as untreated, 0 = no growth, -100 = all killed)
# measurement_parameters: 10 µM unless noted
The panel holds about 83,000 compounds, 20% with a hit somewhere; the sample as a whole holds those more often.
Reply numerically in %, unit not repeated.

Some entries whose results are on file:
INSERT INTO measurements (compound, measurement_unit, endpoint_value) VALUES
  ('CCC1CN2C(=N1)c1ccccc1-c1cc(Cl)ccc12 (stereo not drawn)', '%', 18.5),
  ('C[C@H]1C=C(C[C@@H](O)CC#CC#CCCCCC[C@@H](O)[C@H]2CCC(=O)O2)C(=O)O1', '%', 105);

Now look at this entry.
Item: "C/C(=N\N=C1/SCC(=O)N1c1ccccc1)c1ccco1" | growth: 131
